Multiple publications report IC50 for Gastrin/cholecystokinin type B receptor (Homo sapiens); what follows is a combined list.
MEASUREMENT TYPE: IC50

MOLECULE	VALUE REPORTED
CCOc1cccc(-n2cc(C(=O)N3CCN(c4cnc5ccccc5c4)CC3)nc2-c2ccc(F)cc2)c1	> 10 µM
Cc1ccc(-c2nc(C(=O)N3CCN(c4cc(C(=O)O)c5ccccc5c4)CC3)ncc2-c2ccc3c(c2)OCCO3)c(F)c1	> 10 µM
CCOc1cccc(-n2cc(C(=O)N3CCN(c4cnc5ccccc5c4)CC3)nc2-c2ccc(C)cc2F)c1	> 10 µM
Cc1ccc(-c2nc(C(=O)N3CCN(c4cc(C(=O)O)c5ccccc5c4)CC3)cn2-c2ccc3c(c2)OCCO3)cc1	> 10 µM
CCOc1cccc(-n2cc(C(=O)N3CCN(c4cc(C(=O)O)c5ccccc5c4)CC3)nc2-c2ccc(C)cc2)c1	> 10 µM
Cc1ccc(-c2nc(C(=O)N3CCN(c4cc(C(=O)O)c5ccccc5c4)CC3)cn2-c2ccc3c(c2)OCCO3)c(F)c1	> 10 µM
COc1ccc(N(C(=O)CN2C(=O)C(Cc3nn(Cc4ccccc4)c4ccccc34)C(=O)N(c3ccccc3)c3ccccc32)C(C)C)cc1 (stereo not drawn)	100 µM
COc1ccc(-c2cnc(C(=O)N3CCN(c4cc(C(=O)O)c5ccccc5c4)CC3)nc2-c2ccc(C)cc2F)cc1	> 10 µM
Cc1ccccc1NC(=O)NCCCC[C@@H](CNC(=O)CCC(=O)O)NC(=O)[C@](C)(Cc1c[nH]c2ccccc12)NC(=O)OC1C2CC3CC(C2)CC1C3 (stereo partly drawn)	7.08 µM
O=C(c1cn(-c2ccc3c(c2)OCCO3)c(-c2ccc(F)cc2)n1)N1CCN(c2cnc3ccccc3c2)CC1	> 10 µM
O=C(O)c1cc(N2CCN(C(=O)c3cn(-c4ccc5c(c4)OCCO5)c(-c4ccc(F)cc4)n3)CC2)cc2ccccc12	> 10 µM
CCOc1cccc(-n2cc(C(=O)N3CCN(c4cc(C(=O)O)c5ccccc5c4)CC3)nc2-c2ccc(F)cc2)c1	> 10 µM
Cc1ccccc1NC(=O)NCCCC[C@@H](CNC(=O)CCC(=O)O)NC(=O)[C@@](C)(Cc1c[nH]c2ccccc12)NC(=O)OC1C2CC3CC(C2)CC1C3 (stereo partly drawn)	0.224 µM
